Reference source for all entries: the supplement of paper PMC11908140

B1: library; numbered along this chain (parent)
chain: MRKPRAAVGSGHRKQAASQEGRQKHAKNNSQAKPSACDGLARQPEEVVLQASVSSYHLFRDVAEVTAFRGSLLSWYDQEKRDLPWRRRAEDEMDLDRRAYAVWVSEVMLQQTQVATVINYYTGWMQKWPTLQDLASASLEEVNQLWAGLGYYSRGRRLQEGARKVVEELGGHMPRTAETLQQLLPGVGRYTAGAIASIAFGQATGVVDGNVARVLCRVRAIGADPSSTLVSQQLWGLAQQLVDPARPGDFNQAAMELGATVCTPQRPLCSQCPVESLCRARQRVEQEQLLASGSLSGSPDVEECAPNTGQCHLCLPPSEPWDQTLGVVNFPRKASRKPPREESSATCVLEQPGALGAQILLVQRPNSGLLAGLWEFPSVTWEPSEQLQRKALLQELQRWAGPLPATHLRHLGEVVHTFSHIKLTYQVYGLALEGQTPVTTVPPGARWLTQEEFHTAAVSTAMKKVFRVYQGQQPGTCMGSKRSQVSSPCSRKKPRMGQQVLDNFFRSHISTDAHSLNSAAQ

variants of: B1; experiment: 8OG:A repair function score (normalized; synonymous = 0, nonsense = -1) (normalized log-likelihood score); higher = more repair activity (WT-like); conditions: with 8OG:A DNA repair reporter (GFP) in HEK-293 MUTYH KO cells;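 note: cells sorted at 72 h after reporter transfection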
Label condition met when 8OG:A repair function score is at or above -0.07; anything below gets condition not met.

1. A259H: condition not met
2. G258C: condition not met
3. E45G: condition met
4. P317F: condition not met
5. R154Q: condition not met
6. F453Q: condition not met
7. P244Y: condition not met
8. D61H: condition not met
9. E342S: condition met
10. S276G: condition met
11. V142F: condition not met
12. S197H: condition not met
13. A63V: condition met
14. T308S: condition met
15. Q282P: condition not met
16. E385F: condition not met
17. V117E: condition not met
18. K390Y: condition not met
19. V218T: condition not met
20. Q50E: condition met
21. E140V: condition not met
22. E433C: condition not met
23. E256P: condition not met
24. S74D: condition not met
25. S486P: condition met
26. F330T: condition not met
27. Q386F: condition not met
28. W381R: condition met
29. D77M: condition not met
30. M93A: condition met
31. Q202F: condition not met
32. Q310T: condition met
33. K422R: condition met
34. R81F: condition not met
35. R389S: condition not met
36. A253R: condition not met
37. Q521I: condition met
38. T130D: condition met
39. T455Q: condition met
40. D322V: condition met
41. M125D: condition not met
42. F250W: condition not met
43. Q388T: condition not met
44. L361Q: condition not met
45. F466G: condition not met
46. P331Q: condition not met
47. D224R: condition not met
48. E303S: condition not met
49. S518Q: condition met
50. T476E: condition met
51. V327S: condition not met
52. V211E: condition not met
53. S226M: condition not met
54. Q473E: condition met
55. M496A: condition met
56. G471I: condition met
57. G171H: condition not met
58. Q363I: condition not met
59. E64S: condition not met
60. F504T: condition met
61. R332E: condition not met
62. R213H: condition not met
63. S384P: condition not met
64. D77Q: condition met
65. D249Q: condition not met
66. T260E: condition not met
67. R97W: condition not met
68. Q50C: condition met
69. H57S: condition not met
70. A89C: condition met
71. H407E: condition not met
72. P442C: condition not met
73. R88W: condition met
74. Q499Y: condition met
75. C489T: condition met
76. T424R: condition not met
77. C347E: condition not met
78. W146A: condition not met
79. D82S: condition not met
80. W124F: condition met
